target: plasma kallikrein (PKa) (Homo sapiens, UniProt P03952); construct: purchased R & D 2497-SE; experiment: Inhibitory activity against plasma kallikrein in vitro (fluorescence intensity enzyme assay, Pro-Phe-Arg-AMC substrate); type: biochemical; settings: plasma kallikrein enzyme assay, Pro-Phe-Arg-AMC substrate; read-out: PKa IC50
Sequence (P03952 391-638 limits assumed): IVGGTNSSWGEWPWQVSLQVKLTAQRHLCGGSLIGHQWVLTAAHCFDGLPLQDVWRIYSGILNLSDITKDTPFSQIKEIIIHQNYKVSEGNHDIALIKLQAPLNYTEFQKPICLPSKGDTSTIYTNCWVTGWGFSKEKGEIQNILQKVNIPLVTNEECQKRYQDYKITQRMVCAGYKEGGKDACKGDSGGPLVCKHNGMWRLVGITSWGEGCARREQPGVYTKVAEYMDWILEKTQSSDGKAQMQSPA
Sequence (P03952 20-390 partner limits assumed): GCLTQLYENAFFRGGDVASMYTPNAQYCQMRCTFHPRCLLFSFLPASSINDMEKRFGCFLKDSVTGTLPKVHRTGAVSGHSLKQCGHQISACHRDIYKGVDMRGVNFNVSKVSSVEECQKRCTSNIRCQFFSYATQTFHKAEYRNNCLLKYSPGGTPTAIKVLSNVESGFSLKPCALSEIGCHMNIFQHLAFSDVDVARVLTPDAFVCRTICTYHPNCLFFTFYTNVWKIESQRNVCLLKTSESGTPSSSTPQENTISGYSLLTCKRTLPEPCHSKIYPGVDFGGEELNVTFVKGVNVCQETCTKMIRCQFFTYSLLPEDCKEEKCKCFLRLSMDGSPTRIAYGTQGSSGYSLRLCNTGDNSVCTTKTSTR
Measurement kind: IC50 (nM)
Form entry: value (nM) — number only.

input: What IC50 appears in the records for this compound with plasma kallikrein (PKa) (Homo sapiens, UniProt P03952)? Cn1cc(Cl)c2cnc(CNC(=O)c3cnn(Cc4ccc(Cn5ccccc5=O)cc4)c3)c(F)c21
output: 43

input: What IC50 appears in the records for this compound with plasma kallikrein (PKa) (Homo sapiens, UniProt P03952)? COc1ccc(F)c(CNC(=O)c2cn(Cc3ccc(Cn4cc(F)ccc4=O)cc3)nc2N2CC(F)(F)C2)c1F
output: 24.9

input: What IC50 appears in the records for this compound with plasma kallikrein (PKa) (Homo sapiens, UniProt P03952)? Cc1cc2ncnn2c(C)c1CNC(=O)c1cn(Cc2ccc(Cn3ccccc3=O)cc2)nc1C(F)(F)F
output: 318

input: What IC50 appears in the records for this compound with plasma kallikrein (PKa) (Homo sapiens, UniProt P03952)? N=C(N)c1ccc(CNC(=O)c2cnn(Cc3cc(F)c(C(=O)C4CC4)c(F)c3)c2)cc1
output: 1.56

input: What IC50 appears in the records for this compound with plasma kallikrein (PKa) (Homo sapiens, UniProt P03952)? COc1ccc(F)c(COC(=O)c2cn(Cc3ccc(Cn4cc(F)ccc4=O)cc3)nc2NC2(C)COC2)c1F
output: 2.78

input: What IC50 appears in the records for this compound with plasma kallikrein (PKa) (Homo sapiens, UniProt P03952)? COCc1nn(Cc2ccc(N3CC4C(C3)C4(F)F)cc2C#N)cc1C(=O)NCc1cc2cnccc2[nH]1 (centres unmarked) [Compound 157]
output: 1.89

input: What IC50 appears in the records for this compound with plasma kallikrein (PKa) (Homo sapiens, UniProt P03952)? Cc1cc(N)nc(C)c1CNC(=O)c1nnc(Cc2cn3cc(C4CC4)ccc3n2)o1
output: 36.2

input: What IC50 appears in the records for this compound with plasma kallikrein (PKa) (Homo sapiens, UniProt P03952)? Cc1cc(N)nc(C)c1CNC(=O)c1cn(Cc2ccc3ncc(Cl)cc3c2)nn1
output: 0.406

input: What IC50 appears in the records for this compound with plasma kallikrein (PKa) (Homo sapiens, UniProt P03952)? COc1ccnc(CNC(=O)c2cn(Cc3ccc(Cn4ccccc4=O)cc3)nc2CN2C(=O)CCCC2=O)c1F
output: 3.49

input: What IC50 appears in the records for this compound with plasma kallikrein (PKa) (Homo sapiens, UniProt P03952)? COc1ccnc(CNC(=O)c2cn(Cc3ccc(Cn4ccccc4=O)cc3)nc2C2CC(OC)C2)c1F (centres unmarked)
output: 7.99

input: What IC50 appears in the records for this compound with plasma kallikrein (PKa) (Homo sapiens, UniProt P03952)? COCc1nn(Cc2ccc(Cn3ccccc3=O)cc2)cc1C(=O)NCc1c(Cl)c2ccncc2n1C
output: 68.8

input: What IC50 appears in the records for this compound with plasma kallikrein (PKa) (Homo sapiens, UniProt P03952)? O=C(NCc1nccc(C2CC2)c1F)c1cn(Cc2ccc(Cn3ccccc3=O)cc2)nc1N1CC(F)(F)C1
output: 42

input: What IC50 appears in the records for this compound with plasma kallikrein (PKa) (Homo sapiens, UniProt P03952)? CNC(=N)c1ccc(CNC(=O)c2cnn(Cc3ccc(CC4CC4)cc3)c2)cc1
output: 855

input: What IC50 appears in the records for this compound with plasma kallikrein (PKa) (Homo sapiens, UniProt P03952)? COc1ccnc(CNC(=O)c2cn(Cc3ccc(Cn4ccccc4=O)cc3)nc2-c2cncnc2)c1F
output: 7.24

input: What IC50 appears in the records for this compound with plasma kallikrein (PKa) (Homo sapiens, UniProt P03952)? N=C(N)c1ccc(CNC(=O)c2cnn(Cc3ccc(OCC4CC4)c(C(F)(F)F)c3)c2)cc1
output: 0.88

input: What IC50 appears in the records for this compound with plasma kallikrein (PKa) (Homo sapiens, UniProt P03952)? COc1ccnc(CNC(=O)c2cn(Cc3ccc(Cn4ccccc4=O)cc3)nc2CN2C[C@H](C)O[C@@H](C)C2)c1F
output: 273

input: What IC50 appears in the records for this compound with plasma kallikrein (PKa) (Homo sapiens, UniProt P03952)? CNc1ccnc(CNC(=O)c2cn(Cc3ccc(Cn4ccccc4=O)cc3)nc2N2CC(F)(F)C2)c1F
output: 6.91

input: What IC50 appears in the records for this compound with plasma kallikrein (PKa) (Homo sapiens, UniProt P03952)? Cc1cc(C(=N)N)cc(C)c1CNC(=O)c1cnn(Cc2ccc(Cn3ccccc3=O)cc2)c1
output: 0.32

input: What IC50 appears in the records for this compound with plasma kallikrein (PKa) (Homo sapiens, UniProt P03952)? COCc1nn(Cc2ccc(Cn3ccccc3=O)cc2)cc1C(=O)NCc1cc2cnccc2n1C [Compound 161]
output: 12.7
